Listed below: pEC50 values for each entry.
test system: HRV99; test: HRV99 EC50; assay type: cell-based
Scale: negative log10 of molar concentration, which is what pEC50 denotes.

CCC(CC)OC(=O)[C@H](C)NP(=O)(OC[C@@]1(C#N)O[C@@H](c2ccc3c(N)ncnn23)[C@H](O)[C@@H]1O)Oc1ccccc1 (stereo partly drawn) has a reported pEC50 of 5.13

CC(C)OC(=O)[C@H](C)NP(=O)(OC[C@@]1(C#N)O[C@@H](c2ccc3c(N)ncnn23)[C@H](O)[C@@H]1O)Oc1ccccc1 (mixture of isomers) has a reported pEC50 of 5.31

C[C@H](NP(=O)(OC[C@@]1(C#N)O[C@@H](c2ccc3c(N)ncnn23)[C@H](O)[C@@H]1O)Oc1ccccc1)C(=O)OCC1CC1 (mixture of isomers) has a reported pEC50 of 5.87

C[C@H](NP(=O)(OC[C@@]1(C#N)O[C@@H](c2ccc3c(N)ncnn23)[C@H](O)[C@@H]1O)Oc1ccccc1)C(=O)OCC1CCC1 (mixture of isomers) has a reported pEC50 of 6.15

C[C@H](NP(=O)(OC[C@@]1(C#N)O[C@@H](c2ccc3c(N)ncnn23)[C@H](O)[C@@H]1O)Oc1ccccc1)C(=O)OCC(C)(C)C (stereo partly drawn) has a reported pEC50 of 6.19

C[C@H](NP(=O)(OC[C@@]1(C#N)O[C@@H](c2ccc3c(N)ncnn23)[C@H](O)[C@@H]1O)Oc1ccccc1)C(=O)OC1CCCCC1 (stereo partly drawn) has a reported pEC50 of 5.96

====

target: HCV replicon 2A; test: HCV Rep 2A EC50 (replicon luciferase); type: cell-based; settings: replicon cells, 3 days; read-out: HCV Rep 2A EC50
Rule: EC50 below 10 µM gives y, anything at or above gives n.

Before answering, review these 4 worked examples.
compound	assignedLabel
C[C@H](N[P@](=O)(OC[C@@]1(C#N)O[C@@H](c2ccc3c(N)ncnn23)[C@H](O)[C@@H]1O)Oc1ccccc1)C(=O)OCC(C)(C)C	y
COCCCOC(=O)[C@H](C)NP(=O)(OC[C@@]1(C#N)O[C@@H](c2ccc3c(N)ncnn23)[C@H](O)[C@@H]1O)Oc1ccccc1 (single isomer, unassigned)	n
CC(NP(=O)(OCC1(C#N)OC(c2ccc3c(N)ncnn23)C(O)C1O)Oc1ccccc1)C(=O)OC1CCOC1 (single isomer, unassigned) [Example 69]	n
CCC(CC)COC(=O)[C@H](C)NP(=O)(N[C@@H](C)C(=O)OC1CCCCC1)OC[C@@]1(C#N)O[C@@H](c2ccc3c(N)ncnn23)[C@H](O)[C@@H]1O (single isomer, unassigned)	y

Now take the following compound into account.
input: Please let me know if CC(NP(=O)(OCC1(C#N)OC(c2ccc3c(N)ncnn23)C(O)C1O)Oc1ccccc1)C(=O)OC1CCOC1 (single isomer, unassigned) [Example 70] shows EC50 below 10 µM.
output: n

====

Test system: RSV strain A2
Assay: RSV HEp-2 EC50 (infectious cytopathic cell protection assay)
Format: cell-based
Conditions: human respiratory syncytial virus, HEp-2, 96 h, HEp-2 cells, RSV A2, 4 days; read-out: RSV HEp-2 EC50
Description: Antiviral activity against RSV is determined using an infectious cytopathic cell protection assay in HEp-2 cells. In this assay, compounds inhibiting viral infection and/or replication produce a cytoprotective effect against the virus-induced cell killing that can be quantified using a cell viability reagent. The techniques used here are novel adaptations of methods described in published literature (Chapman et al., Antimicrob Agents Chemother. 2007, 51(9):3346-53.) […]
Rule: EC50 below 2000 nM gives rule met, anything at or above gives rule not met.

Before answering, review these 4 worked examples.
molecule	assignedLabel
C[C@H](NP(=O)(OC[C@@]1(C#N)O[C@@H](c2ccc3c(N)ncnn23)[C@H](O)[C@@H]1O)Oc1ccccc1)C(=O)OCC(CO)CO (stereo partly drawn)	rule not met
C[C@H](NP(=O)(OC[C@@]1(C#N)O[C@@H](c2ccc3c(N)ncnn23)[C@H](O)[C@@H]1O)Oc1ccccc1)C(=O)OCC1CC1 (mixture of isomers)	rule met
CC(C)(CO)C(=O)OCCNP(=O)(OC[C@@]1(C#N)O[C@@H](c2ccc3c(N)ncnn23)[C@H](O)[C@@H]1O)Oc1ccccc1 (stereo partly drawn)	rule not met
CCCCCCCCCCCCCCCCCCOC(=O)[C@H](C)NP(=O)(OC[C@@]1(C#N)O[C@@H](c2ccc3c(N)ncnn23)[C@H](O)[C@@H]1O)Oc1ccccc1 (stereo partly drawn)	rule met

input: Please let me know if C[C@H](NP(=O)(OC[C@@]1(C#N)O[C@@H](c2ccc3c(N)ncnn23)[C@H](O)[C@@H]1O)Oc1ccccc1)C(=O)OC[C@H]1CC[C@H](N)CC1 (stereo partly drawn) shows EC50 below 2000 nM.
output: rule met

input: Please let me know if C[C@H](NP(=O)(OC[C@@]1(C#N)O[C@@H](c2ccc3c(N)ncnn23)[C@H](O)[C@@H]1O)Oc1ccccc1)C(=O)O[C@@H]1CCOC1 (mixture of isomers) shows EC50 below 2000 nM.
output: rule met
